# SUBJECT_OF_TEST: Cytochrome P450 2D6 (Homo sapiens) (UniProt P10635)
# Sequence (P10635 whole entry, looked up): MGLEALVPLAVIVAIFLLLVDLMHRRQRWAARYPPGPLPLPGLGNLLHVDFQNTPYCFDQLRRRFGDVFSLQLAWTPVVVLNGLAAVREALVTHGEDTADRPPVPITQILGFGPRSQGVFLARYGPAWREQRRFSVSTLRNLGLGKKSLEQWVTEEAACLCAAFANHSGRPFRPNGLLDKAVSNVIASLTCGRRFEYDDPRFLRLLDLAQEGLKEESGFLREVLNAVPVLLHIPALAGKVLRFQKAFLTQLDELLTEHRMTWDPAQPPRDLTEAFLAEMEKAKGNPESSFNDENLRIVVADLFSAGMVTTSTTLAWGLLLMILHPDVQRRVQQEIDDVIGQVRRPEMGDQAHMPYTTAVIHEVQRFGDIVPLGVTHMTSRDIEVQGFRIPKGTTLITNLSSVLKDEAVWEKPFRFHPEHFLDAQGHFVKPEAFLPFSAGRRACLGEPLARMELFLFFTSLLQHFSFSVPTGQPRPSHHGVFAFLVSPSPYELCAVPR
# TEST_NAME: Cytochrome P450 Family 2 Subfamily D Member 6 (CYP2D6) small molecule antagonists: luciferase reporter qHTS assay (AID 1671196); further: nearly all actives have a fitted effect of over 50% in size
# CONDITIONS_USED: P450-Glo CYP2D6 enzyme assay, luciferin luminescence, 1 h; series mostly up to 115 µM
Results filed as inconclusive are left out. Activity calls are given as the source filed them. The call rests on the fitted dose curve; in most records, active means well fitted inhibition curve with a large enough effect in the repeat runs; inconclusive means weak or mixed curves; inactive means no such curve, though single readings can be large or run the other way.
# output must be one of 1 for active, 0 for inactive

Lab log entry: O=C1c2c(O)cccc2Cc2cccc(O)c21 — outcome as called in the assay?
0

Lab log entry: NC(=O)n1c(O)c(C(=O)c2cccs2)c2cc(Cl)ccc21 — outcome as called in the assay?
0

Lab log entry: NS(=O)(=O)c1cc2c(cc1Cl)NCNS2(=O)=O — outcome as called in the assay?
0

Lab log entry: O=CC(=O)c1ccccc1 — outcome as called in the assay?
1

Lab log entry: Cc1ncc([N+](=O)[O-])n1CCO — outcome as called in the assay?
0

Lab log entry: COc1ccc2cc(S(=O)(=O)N[C@H](CC(=O)N[C@H](Cc3ccc(CN4[C@H](C)CCC[C@@H]4C)cc3)C(=O)N(C)C(C)C)c3ccc4c(c3)OCO4)ccc2c1 — outcome as called in the assay?
1

Lab log entry: O=C1OC2(c3ccccc31)c1cc(Br)c(O)c(Br)c1Oc1c2cc(Br)c(O)c1Br — outcome as called in the assay?
0

Lab log entry: O=C(O)CC(O)C(=O)O (stereo unspecified) — outcome as called in the assay?
0

====

# TEST_NAME: qHTS assay to identify small molecule agonists of H2AX (AID 1224845); further: on the % scale 0 is the no-effect control and ±100 the full control effect
# CONDITIONS_USED: CHO-K1 phospho-H2AX Ser139 HTRF, 3 h; series mostly up to 154 µM
# Description: National Center for Advancing Translational Sciences [NCATS] NIH Chemical Genomics Center [NCGC] U.S. Environmental Protection Agency [EPA] National Institutes of Environmental Health Sciences [NIEHS] National Toxicology Program [NTP] U.S. Food and Drug Administration [FDA] HTRF phospho-H2AX (Ser139) assay (Cisbio Bioassays, US) enables the quantitative detection of the histone variant H2AX when phosphorylated on serine 139. […]
Results filed as inconclusive are left out. Active and inactive are the calls of the source. Calls come from the whole dose curve; as a rule, active = well fitted activation curve with a large enough effect in the signal ratio in the repeat runs (not every such curve was filed as active); inconclusive = weak or mixed curves; inactive = flat fitted curve, though single readings scatter; the % refers to the signal ratio.
# output must be one of active, inactive

The examples below pair each entry with its known result.
1) CC(=O)Nc1c(I)c(NC(C)=O)c(I)c(C(=O)O)c1I ... inactive
2) CCCCCCc1ccc(O)cc1O ... inactive
3) Cc1cccc(C)c1 ... inactive
4) C1=CC2C3C=CC(C3)C2C1 (configuration not stated) ... inactive

Lab log entry: Nc1ccc(S(N)(=O)=O)cc1 — outcome as called in the assay?
inactive

Lab log entry: O=C1c2c(O)cccc2Cc2cccc(O)c21 — outcome as called in the assay?
inactive

Lab log entry: CC12CCC(CC1)C(C)(C)O2 — outcome as called in the assay?
inactive

Lab log entry: Cc1ncc([N+](=O)[O-])n1CCO — outcome as called in the assay?
inactive

Lab log entry: Nc1c2c(nc3ccccc13)CCCC2 — outcome as called in the assay?
inactive

Lab log entry: COc1ccc(CN(CCN(C)C)c2ccccn2)cc1 — outcome as called in the assay?
inactive

Lab log entry: CCCCNC(=O)NS(=O)(=O)c1ccc(C)cc1 — outcome as called in the assay?
inactive

Lab log entry: COc1ccc(C(Cl)=C(c2ccc(OC)cc2)c2ccc(OC)cc2)cc1 — outcome as called in the assay?
inactive

====

# TEST_NAME: qHTS assay for identifying genotoxic compounds that show differential cytotoxicity against isogenic chicken DT40 cell lines with known DNA damage response pathways - wild type cell line (AID 743012); further: on the % scale 0 is the no-effect control and ±100 the full control effect; nearly all actives have a fitted effect of over 60% in size
# CONDITIONS_USED: DT40 wild type chicken cells viability, CellTiter-Glo, 40 h; series mostly up to 68.4 µM
Results filed as inconclusive are left out. The source made the active and inactive calls. Calls come from the whole dose curve; as a rule, active = well fitted cell-killing curve with a large enough effect in the repeat runs; inconclusive = weak or mixed curves, or effect the other way; inactive = no such curve, though single readings can be large or run the other way.
RECORDED_ENDPOINT: outcome

1) Cc1ccc(S(=O)(=O)O)cc1 ... inactive
2) CCN(CC)C(=O)c1cccc(C)c1 ... inactive
3) CC12CCC(CC1)C(C)(C)O2 ... inactive
4) O=c1[nH]cnc2c1ncn2[C@H]1CC[C@@H](CO)O1 ... inactive

====

# TEST_NAME: qHTS RealTime-Glo MT Cell Viability Assay in HEK293 cells - 16 hour (AID 1224872); further: top concentration of the series differs between compounds; on the % scale 0 is the no-effect control and ±100 the full control effect; nearly all actives have a fitted effect of over 50% in size
# CONDITIONS_USED: RealTime-Glo luminescence; series mostly up to 76.8 µM
Records with an inconclusive call do not appear. Calls of active or inactive are those of the source. The call rests on the fitted dose curve; in most records, active means well fitted cell-killing curve with a large enough effect in the repeat runs; inconclusive means weak or mixed curves, or effect the other way; inactive means flat fitted curve, though single readings scatter.
# output must be one of 1 (yes) for active, 0 (no) for inactive

1) CCCc1cc(=O)[nH]c(=S)[nH]1 ... 0 (no)
2) O=C(O)CC(O)C(=O)O (configuration not stated) ... 0 (no)
3) F[B-](F)(F)F ... 0 (no)
4) O=C(O)c1ccccc1 ... 0 (no)
5) Nc1ccc([N+](=O)[O-])cc1O ... 0 (no)

Lab log entry: O=c1[nH]cnc2c1ncn2[C@H]1CC[C@@H](CO)O1 — outcome as called in the assay?
0 (no)

Lab log entry: CCCCC(CC)C(=O)O (configuration not stated) — outcome as called in the assay?
0 (no)

Lab log entry: Nc1c2c(nc3ccccc13)CCCC2 — outcome as called in the assay?
0 (no)

Lab log entry: Nc1ccc(O)c([N+](=O)[O-])c1 — outcome as called in the assay?
0 (no)

Lab log entry: O=C1O[C@H]([C@@H](O)CO)C(O)=C1O — outcome as called in the assay?
0 (no)

Lab log entry: CN(C)CCOC(C)(c1ccccc1)c1ccccn1 (configuration not stated) — outcome as called in the assay?
0 (no)

Lab log entry: COc1cccc(O)c1O — outcome as called in the assay?
0 (no)

====

# TEST_NAME: qHTS assay to identify small molecule agonists of the progesterone receptor (PR) signaling pathway - cell viability counter screen (AID 1346799); further: on the % scale 0 is the no-effect control and ±100 the full control effect; nearly all actives have a fitted effect of over 45% in size
# CONDITIONS_USED: PR-UAS-bla HEK293T viability, CellTiter-Glo luminescence, 16 h; series mostly up to 92.4 µM
Inconclusive results are not listed. Calls of active or inactive are those of the source. The call rests on the fitted dose curve.
RECORDED_ENDPOINT: outcome

Use these answered entries as a reference point.
1) Cc1cc(=O)oc2cc(O)ccc12 ... inactive
2) CCCc1cc(=O)[nH]c(=S)[nH]1 ... inactive
3) CN(N=O)C(=O)N[C@@H]1[C@@H](O)[C@H](O)[C@@H](CO)O[C@@H]1O ... inactive
4) O=C(Nc1ncc([N+](=O)[O-])s1)c1cccs1 ... inactive
5) OC[C@H]1O[C@H](O[C@]2(CCl)O[C@H](CCl)[C@@H](O)[C@@H]2O)[C@H](O)[C@@H](O)[C@H]1Cl ... inactive
6) Cc1ccc(S(=O)(=O)O)cc1 ... inactive

Sure, the documented outcome for CNNCc1ccc(C(=O)NC(C)C)cc1 is inactive

====

# TEST_NAME: A CellTox Green Cytotoxicity Assay to monitor cytotoxicity in HepG2 cells - 0 hour (AID 1224882); further: on the % scale 0 is the no-effect control and ±100 the full control effect; nearly all actives have a fitted effect of over 35% in size
# CONDITIONS_USED: CellTox Green fluorescence; series mostly up to 76.8 µM
The source made the active and inactive calls. Calls follow the shape of the dose curve; as a rule, active = well fitted activation curve with a large enough effect in the repeat runs; inconclusive = weak or mixed curves; inactive = flat fitted curve, though single readings scatter.
# output must be one of active, inactive

1) O=C(Nc1ncc([N+](=O)[O-])s1)c1cccs1 ... inactive
2) Nc1ccc([N+](=O)[O-])cc1O ... inactive
3) Cc1ccc(S(=O)(=O)O)cc1 ... inactive

Lab log entry: NS(=O)(=O)O — outcome as called in the assay?
inactive

Lab log entry: CN[C@H]1CC[C@@H](c2ccc(Cl)c(Cl)c2)c2ccccc21 — outcome as called in the assay?
inactive

Lab log entry: O=C1NC(=O)C(c2ccccc2)(c2ccccc2)N1 — outcome as called in the assay?
inactive

Lab log entry: CCN(Cc1c(F)cccc1Cl)c1c([N+](=O)[O-])cc(C(F)(F)F)cc1[N+](=O)[O-] — outcome as called in the assay?
inactive

====

# TEST_NAME: qHTS assay to identify small molecule antagonists of the retinoid acid receptor (RAR) signaling pathway - cell viability counter screen (AID 1159551); further: on the % scale 0 is the no-effect control and ±100 the full control effect; nearly all actives have a fitted effect of over 35% in size
# CONDITIONS_USED: C3RL4 cells viability, ATP luminescence (CellTiter-Glo), 6 h; series mostly up to 92.4 µM
Inconclusive results are not listed. The source made the active and inactive calls. Calls come from the whole dose curve; as a rule, active = well fitted cell-killing curve with a large enough effect in the repeat runs; inconclusive = weak or mixed curves, or effect the other way; inactive = flat fitted curve, though single readings scatter.
# output must be one of yes (1) (active), no (0) (inactive)

The examples below pair each entry with its known result.
1) Cc1cccc(C)c1 ... no (0)
2) CCCCCCCC(=O)OCC(COC(=O)CCCCCCC)OC(=O)CCCCCCC ... no (0)
3) CN(C)CCOC(C)(c1ccccc1)c1ccccn1 (centres undefined) ... no (0)

--- query ---
Lab log entry: O=c1[nH]cnc2c1ncn2[C@H]1CC[C@@H](CO)O1 — outcome as called in the assay?
no (0)
